Attribution: the supplement of paper PMC9170038

Test system: K4 kissing-loop RNA reporter;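 note: bound reporter read as fluorescence of individual clusters on recovered sequencing chips by microscopy, with normalized cluster intensities fitted with a binding model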
Experiment notes: apparent KD of K4 kissing-loop reporter; higher = weaker reporter binding
Run conditions: Eterna round: R107; input ligand: none
Result type: apparent KD of K4 kissing-loop reporter (µM)
Expressed in µM, but write only the number.

Previously resolved entries follow.
CAGUUCCGUAGUGAUGUUACGAUCUCUGAUACCAGACAACUCUAAGUCCCUUGGCAGCAGUCAUUUUGCUUAAUAUUUACUCAAA [#08 K4 Theophylline A Exclusion]    0.136
AAACGUUGGUGCGAUACCAGCUGGUCGGAAACGACCUUGCUGGAGUGAUGUUCCAAGUAAAGCCCUUGGCAGCGCACCGACGAAA [MAT - Same State Theophlline B - Mod of Eli - D23]    0.0432
AAAUAGAUCAGUCACCCAGUGAUGUUGGAAGGAGCGUGCGAAAGCACAGGUAGGUCGCCAUAAUAAAAGUGGCUGAUCAAAAUAA    0.487
UGUAUGUGAUUUGAUACCAGACCAGCUGGUGGUGUAUGAGUGAUGUUCAUGCUGGUUUGGGUCCCUUGGCAGCAAAUCGCAUACU [KL-SSTheoB29]    0.00846
AAACGUUGGUCGGAUACCAGCUUGAUCGGAAACGAUCUGCUGGAGUGAUGUUCCAAGUAAAGCCCUUGGCAGCCGACCGACGAAA [MAT - Same State Theophlline B - Mod of Eli - D18]    0.0994

Data request: # return recorded apparent KD of K4 kissing-loop reporter for input UAAGAAUAAGAUGCAGUGAUGUUGCAUCUACGAGGACCGGUACGGCCGCCACUCGAGGUCCUCGAACUGCAUCAGAGGACAAUAA [(H,1)-(H,2)-(Trp1)-(Trp2)-(T)'-(H)'-(T)'']
Data returned: 0.286
